Task for the reader: assign each of the following sequences its reported switch fluorescence ratio.
system: ATP; assay: switch fluorescence ratio, 500 uM ATP over buffer (Cy3 cluster intensity, sum of 5 cycles each) (fold (ratio)); higher = stronger signal-on switching upon ATP binding; sequences stand for … in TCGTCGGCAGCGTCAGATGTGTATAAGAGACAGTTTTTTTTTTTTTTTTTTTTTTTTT…TC; conditions: aptamer strand: ATP DNA aptamer (quencher-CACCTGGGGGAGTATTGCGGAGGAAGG + anchor), 100 nM annealed; ATP concentration: 500 uM;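 note: ATP exposure 15 min at 22 °C before imaging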
Response field accepts a number only; no unit should be typed.

What value of switch fluorescence ratio on ATP does `TCGAAAATGT` have? 1.01

Request body: readout switch fluorescence ratio, system ATP, query `TTAGAGCATT` . Return the value. 1

ATP / switch fluorescence ratio / `TTCAGTGTTA` : value? 1.02

API: value(readout=switch fluorescence ratio, system=ATP) for record `AGGTTAATTG` 0.991

Param readout = switch fluorescence ratio; param system = ATP; param query = `GGGGGATGTT` ; response: value 0.997

Form field: switch fluorescence ratio recorded for `TCAAAGGGTC` with ATP (enter value) 1

What value of switch fluorescence ratio on ATP does `GCCCCGGGTT` have? 1.36

Record lookup: for ATP, what switch fluorescence ratio belongs to `ATGGAGATAG` ? 1.01

# value lookup — system ATP, readout switch fluorescence ratio, item `GGCCTCTTGG` 1

Could you share what switch fluorescence ratio was measured for `GAGGGAGGTG` , tested on ATP? 1.02

Hello, I am looking for reported switch fluorescence ratio with ATP for `TTAAAATGAG` . Could you help? 0.997

Lookup: switch fluorescence ratio / ATP / `GGGATACTTA` 1.02

Test system ATP; read-out switch fluorescence ratio; what value for `TCGGGAACAG` ? 1.02

Param readout= switch fluorescence ratio; system= ATP; entry= `GGCTGGCACA` ; returns value. 1

For ATP, provide switch fluorescence ratio of `CTCAATCGGG` please. 1.04

Form entry - test system: ATP; read-out: switch fluorescence ratio; sequence: `CTGGTGCCGA` 0.985

Recorded switch fluorescence ratio for `ATAACGTTGA` with ATP, please? 0.99

Provide the documented switch fluorescence ratio with ATP as the system for `GGTGATACGC` 1

# query: switch fluorescence ratio | item `TGGGGTTATA` | system: ATP 1.02

So what switch fluorescence ratio did `GTTGCGGGCG` get with ATP? 0.991
